target: IGF-1R (Homo sapiens, UniProt P08069); construct: purchased Upstate Co. 14-465; assay: IGF-1R inhibitory activity (kinase reaction, time-resolved fluoroimmunoassay); format: biochemical; details: IGF-1R active recombinant enzyme, test compound 10 μmol/L
Sequence (P08069 959-1367 limits assumed): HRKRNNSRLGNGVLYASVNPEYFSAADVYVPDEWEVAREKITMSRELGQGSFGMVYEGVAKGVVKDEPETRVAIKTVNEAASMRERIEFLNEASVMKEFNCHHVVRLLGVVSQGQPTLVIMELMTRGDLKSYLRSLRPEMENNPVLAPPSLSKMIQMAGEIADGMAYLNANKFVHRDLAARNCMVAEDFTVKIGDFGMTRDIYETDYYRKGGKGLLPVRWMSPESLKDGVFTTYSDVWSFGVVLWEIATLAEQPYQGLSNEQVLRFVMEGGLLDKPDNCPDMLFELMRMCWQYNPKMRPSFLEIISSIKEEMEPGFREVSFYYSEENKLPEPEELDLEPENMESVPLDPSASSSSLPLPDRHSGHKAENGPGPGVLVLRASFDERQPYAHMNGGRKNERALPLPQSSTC
parameter: inhibitory activity (%) at 10 μmol/L
Numbers only; they are read as %.

# annotated cases, reported inhibitory activity (%) at 10 μmol/L shown
[[record]]
smiles_representation = "COc1c(OC(=O)CC(=O)N2CC[C@@H](O)C2)ccc(/C=C/c2n[nH]c3ccccc23)c1NC(=O)c1sccc1C"
parameter = "inhibitory activity (%) at 10 μmol/L"
recorded_value = 98.4

[[record]]
smiles_representation = "CCC(O)(CC)C(=O)Nc1ccccc1/C=C/c1n[nH]c2ccccc12"
parameter = "inhibitory activity (%) at 10 μmol/L"
recorded_value = 97.4

[[record]]
smiles_representation = "CCN(CC)CCOc1ccc(/C=C/c2n[nH]c3ccccc23)c(NC(=O)c2sccc2C)c1OC"
parameter = "inhibitory activity (%) at 10 μmol/L"
recorded_value = 100.9

[[record]]
smiles_representation = "Cn1cccc1C(=O)Nc1cc(N(CCO)CCN2CCOCC2)ccc1/C=C/c1n[nH]c2ccccc12"
parameter = "inhibitory activity (%) at 10 μmol/L"
recorded_value = 99.1

[[record]]
smiles_representation = "Cc1ccsc1C(=O)Nc1cc(N(C)CCO)ccc1/C=C/c1n[nH]c2ccccc12"
parameter = "inhibitory activity (%) at 10 μmol/L"
recorded_value = 97.6


According to the records, this compound Cc1ccsc1C(=O)Nc1cc(CN2CCNCC2)ccc1/C=C/c1n[nH]c2ccccc12 displays inhibitory activity (%) at 10 μmol/L of 102.1

Data point: Cc1ccsc1C(=O)Nc1cc(CN2CCN(CCN3CCOCC3)CC2)ccc1/C=C/c1n[nH]c2ccccc12 ; inhibitory activity (%) at 10 μmol/L = 100.4

---

target: IGF-1R (Homo sapiens); construct: purchased Upstate Co. 14-465; experiment: IGF-1R inhibitory activity (kinase reaction, time-resolved fluoroimmunoassay); type: biochemical; details: IGF-1R active recombinant enzyme, test compound 10 μmol/L
Each entry below carries its recorded inhibition at 10 µM.
Numbers only; they are read as %.

# annotated cases, reported inhibition at 10 µM shown
[[record]]
smiles_representation = "Cn1cccc1CC(=O)Nc1ccccc1/C=C/c1n[nH]c2ccccc12"
tested_on = "IGF-1R (Homo sapiens)"
parameter = "inhibition at 10 µM"
unit_string = "%"
recorded_value = 88

[[record]]
smiles_representation = "O=C(Nc1nccs1)c1ccccc1/C=C/c1n[nH]c2ccccc12"
tested_on = "IGF-1R (Homo sapiens)"
parameter = "inhibition at 10 µM"
unit_string = "%"
recorded_value = 97.2

[[record]]
smiles_representation = "O=C1c2ccc([N+](=O)[O-])cc2C(=O)N1c1ccccc1/C=C/c1n[nH]c2ccccc12"
tested_on = "IGF-1R (Homo sapiens)"
parameter = "inhibition at 10 µM"
unit_string = "%"
recorded_value = 92.3


Note: attention shifts to another entry.
inhibition at 10 µM recorded for this molecule, COc1c(OCCN2C(=O)CNC2=O)ccc(/C=C/c2n[nH]c3ccccc23)c1NC(=O)c1sccc1C , is 102

---

target: IGF-1R (Homo sapiens, UniProt P08069); construct: purchased Upstate Co. 14-465; experiment: IGF-1R inhibitory activity (kinase reaction, time-resolved fluoroimmunoassay); type: biochemical; settings: IGF-1R active recombinant enzyme, test compound 10 μmol/L
Where a name gives a salt, the structure may show the parent alone.
parameter: inhibition at 10 µM (%)
Enter your answer as a number in %; do not include the unit.

[[record]]
compound = "Cc1ccsc1C(=O)Nc1cc(C(=O)NC2CCNCC2)ccc1/C=C/c1n[nH]c2ccccc12 [Compound 240, hydrochloride]"
parameter = "inhibition at 10 µM"
unit_string = "%"
recorded_value = 103

[[record]]
compound = "COc1c(OCCCN(C)CCO)ccc(/C=C/c2n[nH]c3ccccc23)c1NC(=O)c1sccc1C [Compound 347]"
parameter = "inhibition at 10 µM"
unit_string = "%"
recorded_value = 106

[[record]]
compound = "Cc1ccsc1C(=O)Nc1cc(N2CCN(C)CC2)ccc1/C=C/c1n[nH]c2ccccc12 [Compound 262]"
parameter = "inhibition at 10 µM"
unit_string = "%"
recorded_value = 103

[[record]]
compound = "O=C(Nc1ccccc1/C=C/c1n[nH]c2ccccc12)c1cnccn1 [Compound 28]"
parameter = "inhibition at 10 µM"
unit_string = "%"
recorded_value = 95.2

[[record]]
compound = "Cc1ccsc1C(=O)Nc1cc(CN2CCN(C(=O)CO)CC2)ccc1/C=C/c1n[nH]c2ccccc12 [Compound 248]"
parameter = "inhibition at 10 µM"
unit_string = "%"
recorded_value = 100

[[record]]
compound = "Cc1ccsc1C(=O)Nc1cc(C(=O)N2CC[C@@H](N)C2)ccc1/C=C/c1n[nH]c2ccccc12 [Compound 221, hydrochloride]"
parameter = "inhibition at 10 µM"
unit_string = "%"
recorded_value = 95.8


Documented inhibition at 10 µM of O=C1C2=C(CCC2)C(=O)N1c1ccccc1/C=C/c1n[nH]c2ccccc12 [Compound 210] : 96.5

The compound listed as O=C(Nc1ccccc1/C=C/c1n[nH]c2ccccc12)c1ccc(CO)cc1 [Compound 79] shows inhibition at 10 µM equal to 97.2

Values were extracted from patent US7605272B2.
